Test: anti-His antibody binders, primary screen, artefact control for SMM control protein annotation, biochemical, small-molecule microarray, 635 nm fluorescence (AID 1128);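 note: score merges feature fluorescence with signal-to-noise for each printed compound spot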
Settings: anti-His Alexa647 antibody binding, higher = more signal
endpoint: composite z-score
Just the number, please.

| compound | endpoint | assayValue |
| --- | --- | --- |
| COc1ccc([Si](C)(C)[C@H]2[C@H](CCO)O[C@@]3(C(=O)N(Cc4ccc(N5C(=O)COc6ccccc65)cc4)c4ccccc43)[C@@H]2C)cc1 | composite z-score | 1.04 |
| O=C1O[C@H](c2ccccc2)[C@H](c2ccccc2)N2[C@H]1[C@@H](C(=O)O)[C@]1(C(=O)Nc3ccc(C#CCCO)cc31)[C@H]2c1ccc(O)cc1 | composite z-score | 0.0887 |
| O=C1O[C@H](c2ccccc2)[C@H](c2ccccc2)N2[C@H]1[C@@H](C(=O)O)[C@]1(C(=O)Nc3ccc(C#CC4=CCCCC4)cc31)[C@H]2c1ccccc1OCCO | composite z-score | 1.76 |
| CC(=O)n1cc(C(O)C2C=CC3C(=O)N(C)C(=O)C3N2Nc2ccccc2)c2ccccc21 (configuration not stated) | composite z-score | 1.88 |
| O=C1OCCC/C=C\[C@H]2OC34C=CCN(Cn5nnc6ccccc65)C(=O)[C@H]3N(CCO)C(=O)[C@@H]4C12 (some centres not stated) | composite z-score | 0.893 |

## Input State the recorded composite z-score for this entry: COc1ccc([Si](C)(C)[C@H]2[C@H](CC(=O)N3Cc4ccccc4C[C@H]3CO)O[C@@]3(C(=O)N(Cc4ccc(N5CCC5=O)cc4)c4ccccc43)[C@@H]2C)cc1
## Output 1.72

## Input For O=C1NCC(=O)N2[C@@H]1C[C@@H](C(=O)O)[C@H]2c1cccc(OCCO)c1 , what is its reported composite z-score?
## Output 1.85
